Please go through the items and note down their viability, T/C.
- System: KRAS PDC multicell spheroid viability;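 further: spheroids exposed to compounds for 7 days; 100% = DMSO vehicle control viability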
- measurement notes: Anticancer human tumor 825966-067-R-J1-PDC patient-derived colon carcinoma cell line growth inhibition [KRAS2]
- stated conditions: second compound 10 µM; first compound 1 µM; active compounds read low
Give bare numbers, in %.

Below: 2 molecules and their reported viability, T/C.
| molecule | unit tag | viability, T/C |
| --- | --- | --- |
| Cn1nccc1Nc1nccc(-c2cc3c(s2)C(C)(C)N(CCN2CCOCC2)C3=O)n1 + CNCc1ccccc1-c1csc(C(C)Nc2nc(C)nc3cc(OC)c(OC)cc23)c1 | % | 0.16 |
| Cn1nccc1Nc1nccc(-c2cc3c(s2)C(C)(C)N(CCN2CCOCC2)C3=O)n1 + COc1cc2nc(C)nc(NC(C)c3cc(N)cc(C(F)(F)F)c3)c2cc1OC1CCOC1 | % | 0.83 |

Required: viability, T/C, one value per molecule below.
1. CC1(C)CCC(CN2CCN(c3ccc(C(=O)NS(=O)(=O)c4ccc(NCC5CCOCC5)c([N+](=O)[O-])c4)c(Oc4cnc5[nH]ccc5c4)c3)CC2)=C(c2ccc(Cl)cc2)C1 + CNCc1ccccc1-c1csc(C(C)Nc2nc(C)nc3cc(OC)c(OC)cc23)c1
2. O=C(c1cc(Cc2n[nH]c(=O)c3ccccc23)ccc1F)N1CCN(C(=O)C2CC2)CC1 + C=CC(=O)N1CCN(c2nc(=O)n(-c3c(C)ccnc3C(C)C)c3nc(-c4c(O)cccc4F)c(F)cc23)C(C)C1

1: 0.35; 2: 72
